Origin of values: ChEMBL document CHEMBL1949585

assayDetails: Inhibition of human TERT expression in H1299 cells at 1 uM after 24 hrs by secreted alkaline phosphatase reporter gene assay relative to control; values are per cent of control
runParameters: NCI-H1299
Each entry below lists one item and its recorded level, % of control value.
propertyMeasured: level, % of control

* CCN(C)CC(=O)Nc1cccc2c1C(=O)c1c(NC(=O)CN(C)CC)cccc1C2=O | 102%
* COC(=O)[C@@H](C)NCC(=O)Nc1cccc2c1C(=O)c1c(NC(=O)CN[C@H](C)C(=O)OC)cccc1C2=O | 83%
* COc1cccc2c1C(=O)c1c(O)c3c(c(O)c1C2=O)C[C@@](O)(C(=O)CO)C[C@@H]3O[C@H]1C[C@H](N)[C@H](O)[C@H](C)O1 [DOXORUBICIN] | 33%
* CN(C)CCCCNCCC(=O)Nc1cccc2c1C(=O)c1c(NC(=O)CCNCCCCN(C)C)cccc1C2=O | 121%
* COC(=O)[C@H](CC(C)C)NCC(=O)Nc1cccc2c1C(=O)c1c(NC(=O)CN[C@@H](CC(C)C)C(=O)OC)cccc1C2=O | 101%
* CC(C)CNCC(=O)Nc1cccc2c1C(=O)c1c(NC(=O)CNCC(C)C)cccc1C2=O | 110%
* CN(C)CCC(=O)Nc1cccc2c1C(=O)c1c(NC(=O)CCN(C)C)cccc1C2=O | 87%
* CN(C)CC(=O)Nc1cccc2c1C(=O)c1c(NC(=O)CN(C)C)cccc1C2=O | 93%
